Measured pIC50 values are reported for all entries that follow.
- Tested on: PC3 cells
- ASSAY_REMARKS: MTS cell growth inhibition assay, PC3
- Type: cell-based, human
- MEASUREMENT_CONDITIONS: Homo sapiens, PC-3; PC3, 72 h of exposure; read-out: IC50 antiproliferative activity PC3
# pIC50 is unitless: minus log10 of the molar concentration; print number only

[
  {
    "COMPOUND": "C=C(CC)C(=O)c1ccc(OCC(=O)NCCCC)cc1O [Compound 7]",
    "DATA_VALUE": 6.31
  },
  {
    "COMPOUND": "COc1cccc2c1C(=O)c1c(O)c3c(c(O)c1C2=O)C[C@@](O)(C(=O)CO)C[C@@H]3O[C@H]1C[C@H](N)[C@H](O)[C@H](C)O1 [Doxorubicin, doxorubicin, reference compound]",
    "DATA_VALUE": 8.68
  }
]

Ask: Fill in reported pIC50 for this entry: C#CCOc1ccc(C(=O)C(=C)CC)c(O)c1 [Compound 8]
Result: 7.16

====

- Test system: HL60 cells
- ASSAY_REMARKS: MTS cell growth inhibition assay, HL60
- Type: cell-based, human
- MEASUREMENT_CONDITIONS: Homo sapiens, HL-60; HL60 leukemia cells, 72 h, MTS; read-out: IC50 antiproliferative activity against HL60
Item-by-item account of pIC50
Schema: pIC50 number; meaning minus log10 of the concentration expressed in molar units.

Consider the following illustrative entries.
[
  {
    "MOLECULE": "C#CCOc1ccc(C(=O)C(=C)CC)c(Cl)c1Cl [Compound 10]",
    "MEASUREMENT_TYPE": "pIC50",
    "DATA_VALUE": 6.24
  },
  {
    "MOLECULE": "C=C(CC)C(=O)c1ccc(OCC(=O)NCCCC)cc1O [Compound 7]",
    "MEASUREMENT_TYPE": "pIC50",
    "DATA_VALUE": 5.77
  }
]

Ask: Write down pIC50 measured for item C#CCOc1ccc(C(=O)C(=C)CC)c(O)c1 [Compound 8]
Result: 7.82

====

- System: MCF7 cells
- ASSAY_REMARKS: MTS cell growth inhibition assay, MCF7
- Format: cell-based, human
- MEASUREMENT_CONDITIONS: Homo sapiens; MCF7, 72 h of exposure; read-out: IC50 antiproliferative activity MCF7
Catalogue of compounds with associated IC50
Give the quantity in nM, number only.

[
  {
    "COMPOUND": "COc1cccc2c1C(=O)c1c(O)c3c(c(O)c1C2=O)C[C@@](O)(C(=O)CO)C[C@@H]3O[C@H]1C[C@H](N)[C@H](O)[C@H](C)O1 [Doxorubicin, doxorubicin, reference compound]",
    "MEASUREMENT_TYPE": "IC50",
    "DATA_VALUE": 120
  },
  {
    "COMPOUND": "C=C(CC)C(=O)c1ccc(OCC(=O)NCCCC)cc1O [Compound 7]",
    "MEASUREMENT_TYPE": "IC50",
    "DATA_VALUE": 528
  }
]

Consider the record given below.
Ask: Look up and report measured IC50 for this entry: C#CCOc1ccc(C(=O)C(=C)CC)c(O)c1 [Compound 8]
Result: 61.5

====

- System: A549 cells
- ASSAY_REMARKS: MTS cell growth inhibition assay, A549
- Type: cell-based, human
- MEASUREMENT_CONDITIONS: Homo sapiens; A549, 72 h of exposure; read-out: IC50 antiproliferative activity A549
MEASUREMENT_TYPE: IC50 (µM)
Just the number in µM, nothing appended.

Example results:
[
  {
    "MOLECULE": "COc1cccc2c1C(=O)c1c(O)c3c(c(O)c1C2=O)C[C@@](O)(C(=O)CO)C[C@@H]3O[C@H]1C[C@H](N)[C@H](O)[C@H](C)O1 [Doxorubicin, doxorubicin, reference compound]",
    "IC50 [µM]": 0.0566
  },
  {
    "MOLECULE": "C=C(CC)C(=O)c1ccc(OCC(=O)NCCCC)cc1O",
    "IC50 [µM]": 0.285
  }
]

Read the next record carefully.
Ask: Supply reported IC50 belonging to this molecule: "C#CCOc1ccc(C(=O)C(=C)CC)c(O)c1"
Result: 0.0412

====

- Tested on: MRC5 cells
- ASSAY_REMARKS: MTS cell growth inhibition assay, normal cell line MRC5
- Assay type: cell-based
- MEASUREMENT_CONDITIONS: MRC5 normal human lung fibroblasts, 72 h of exposure; read-out: IC50 antiproliferative activity MRC5
MEASUREMENT_TYPE: pIC50
pIC50 here is simply -log10 of the concentration when that concentration is written in mol/L.

// solved cases for pIC50 follow
[
  {
    "COMPOUND": "C=C(CC)C(=O)c1ccc(OCC(=O)NCCCC)cc1O [Compound 7]",
    "MEASUREMENT_TYPE": "pIC50",
    "DATA_VALUE": 6.07
  },
  {
    "COMPOUND": "C#CCOc1ccc(C(=O)C(=C)CC)c(O)c1 [Compound 8]",
    "MEASUREMENT_TYPE": "pIC50",
    "DATA_VALUE": 6.46
  }
]

Let us examine a further case.
Ask: Specify pIC50 for COc1cccc2c1C(=O)c1c(O)c3c(c(O)c1C2=O)C[C@@](O)(C(=O)CO)C[C@@H]3O[C@H]1C[C@H](N)[C@H](O)[C@H](C)O1 [Doxorubicin, doxorubicin, reference compound] and stop.
Result: 7.40
